# measurement_protocol: chemical genetic growth profiling, strain panel (AID 1159580);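 further: tested at 20 µM; growth read once vehicle control cultures reached saturation at 30 °C; lower values mean less growth of the strain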
# condition_info: S. cerevisiae deletion strains, growth OD, locus YGL253W, strain hxk2
The whole screen tested about 5,500 compounds, of which about 2,000 (36%) were called active. About 18% were inconclusive and are not listed. No stated cut-off is given here; in the data, active means normalized growth mostly below about 0.91 (no sharp cut-off); inconclusive means no clear call, values can overlap the other calls; inactive means mostly above about 0.92. Some of the results follow. Where a SMILES comes first, the peptide text is derived from it. Bridges are numbered along the chain shown (N, C = ends). [ ]: non-standard residue; d: D form. The star is where a group is joined. ξ: configuration not given here. ξDab(CH2SO3H) = NC(CCNCS(=O)(=O)O)C(=O)O; Heptanoyl(6-Me) = CC(C)CCCCC(=O)*; Dab = NCC[CH](N)C(=O)O
Outcomes: active, inactive

compound: COc1ccc2[nH]cc(CCN)c2c1
class_assignment: inactive
--
compound: CC1(C)CC[C@]2(C(=O)O)CC[C@]3(C)C(=CCC4[C@@]5(C)CC[C@@H](O)C(C)(C)C5CC[C@]43C)C2C1 (some centres not stated)
class_assignment: inactive
--
compound: CCCCCCCCCCCC[C@H](C(=O)O)[C@@H](C)C(=O)O
class_assignment: inactive
--
compound: Nc1c2ccccc2nc2ccccc12
class_assignment: active
--
compound: CCCCCCCCCCCCCCC(C(=O)O)C(O)(CC(=O)OC)C(=O)O (configuration not stated)
class_assignment: inactive
--
compound: O=C(O)CC(O)(CC(=O)O)C(=O)O
class_assignment: inactive
--
compound: CCC(C)C1NC(=O)C(CCNCS(=O)(=O)O)NC(=O)C(NC(=O)C(CCNCS(=O)(=O)O)NC(=O)C(NC(=O)C(CCNCS(=O)(=O)O)NC(=O)CCCCC(C)C)C(C)O)CCNC(=O)C(C(C)O)NC(=O)C(CCNCS(=O)(=O)O)NC(=O)C(CCNCS(=O)(=O)O)NC(=O)C(C(C)CC)NC1=O (configuration not stated) ({Heptanoyl(6-Me)}-[ξDab(CH2SO3H)]T[ξDab(CH2SO3H)][Dab][ξDab(CH2SO3H)]II[ξDab(CH2SO3H)][ξDab(CH2SO3H)]T; lactam 4-C; configuration not given here)
class_assignment: inactive
